# tested-system: T1, HLA-DRB1*0401 (human)
# T1 construct: purified MHC class II molecule; also called DR4w4
# experimental-protocol: competition with 125I-labelled standard peptide, purified HLA-DR, gel filtration
measured-quantity: IC50 (nM)

>>> recorded_result("DEAYVMAGVGSPYVS [Her2/neu.769]")
196
